// reported AUC(0-t) for each item listed
Experiment: Pharmacokinetics of AT and NT in healthy volunteers after a single dose of 25 mg amitriptyline
Type: in vivo, human
Conditions: both sexes, human, plasma, po, 25 mg, healthy volunteers, single oral 25 mg AT, plasma; CYP2C19 activity score 2.5 (n = 10); mean; read-out: AUC48h
Value expressed in ng·h/mL; do not type the unit.

[
  {
    "smi": "CN(C)CCC=C1c2ccccc2CCc2ccccc21",
    "measure unit": "ng·h/mL",
    "AUC(0-t)": 171
  }
]

Now examine the next entry.
The compound identified as CNCCC=C1c2ccccc2CCc2ccccc21 registered its AUC(0-t) at 108
